System: HL-60 cells
Assay overview: Viable cell count of leukemic cells in suspension culture (Trypan blue)
Format: cell-based, human
Measurement parameters: read-out: concentration required for 50% inhibition of HL-60 cells; PPARγ ligands compared to CDDO
Measure name: IC50 (µM)
Answers are plain numbers, in µM.

IC50 on HL-60 cells for CCCCC/C=C/C=C1/C(=O)C=C[C@@H]1C/C=C\CCCC(=O)O [15d-PGJ2, 15-deoxyΔ^12,14PGJ2] is 5

* * *

Test system: KG-1
Assay overview: Growth inhibition of leukemic cell line
Assay type: cell-based, human
Measure name: pIC50
One number for each entry, as −log10 of the molar value.

Reported pIC50 ( COC(=O)[C@]12CCC(C)(C)C[C@H]1[C@H]1C(=O)C=C3[C@@]4(C)C=C(C#N)C(=O)C(C)(C)[C@@H]4CC[C@@]3(C)[C@]1(C)CC2 ) = 6.40
